- System: MDA-MB-435
- ASSAY METHOD TEXT: Cytotoxicity against human MDA-MB-435 cells assessed as reduction in cell viability incubated for 48 hrs by MTT assay
- Assay type: functional, cell-based
- EXPERIMENTAL SETUP: MDA-MB-435, 48 h
QUANTITY MEASURED: IC50

INPUT: Dear colleague, I am looking for the recorded IC50 of the following compound: `C[C@@H]1O[C@@H](O[C@H]2CC[C@H](O[C@H]3[C@H](O)C[C@H](c4ccc5c(c4O)C(=O)c4ccc6c(c4C5=O)C(=O)C[C@](C)(O)C6)O[C@@H]3C)O[C@H]2C)CCC1=O`
OUTPUT: 2400 nM

----------
- Tested on: HepG2
- ASSAY METHOD TEXT: Cytotoxicity against human HepG2 cells assessed as reduction in cell viability incubated for 48 hrs by MTT assay
- Assay type: functional, cell-based
- EXPERIMENTAL SETUP: HepG2, 48 h
QUANTITY MEASURED: pIC50
Remember the convention: pIC50 equals -log10 of concentration in molar.

INPUT: Requested read-out pIC50, target or system HepG2, entry `C[C@@H]1O[C@@H](O[C@H]2CC[C@H](O[C@H]3[C@H](O)C[C@H](c4ccc5c(c4O)C(=O)c4ccc6c(c4C5=O)C(=O)C[C@](C)(O)C6)O[C@@H]3C)O[C@H]2C)CCC1=O`
OUTPUT: 5.62

----------
- System: NCI-H69
- ASSAY METHOD TEXT: Cytotoxicity against human NCI-H69 cells assessed as reduction in cell growth by MTT assay
- Type: functional, cell-based
QUANTITY MEASURED: pIC50
Remember the convention: pIC50 equals -log10 of concentration in molar.

INPUT: Dear colleague, I am looking for the recorded pIC50 of the following compound: `CC1=CC(=O)[C@]2(O)[C@](O)(CC[C@@]34O[C@@]23C(=O)c2cccc(O)c2C4=O)C1`
OUTPUT: 6.49

----------
- Tested on: HepG2
- ASSAY METHOD TEXT: Cytotoxicity against human HepG2 cells assessed as reduction in cell growth incubated for 72 hrs by SRB assay
- Assay type: functional, cell-based
- EXPERIMENTAL SETUP: HepG2, 72 h
QUANTITY MEASURED: pIC50
Remember the convention: pIC50 equals -log10 of concentration in molar.

INPUT: Requested read-out pIC50, target or system HepG2, entry Cc1cc(O)c2c(c1)C1c3c-2c(O)c2cccc(O)c2c3OC(=O)C1c1c[nH]c2ccccc12 (stereo unspecified)
OUTPUT: 5.15
